- cond: 298.2 K; 101.33 kPa; Liquid; Cone and plate viscometry
Here the recorded viscosity is given for each entry.
recordedMetric: viscosity (mPa·s)

> print(dat)
                                   compound  reportedvalue
1  CCCCCC(=O)[O-].CCCCCCCCCCCCCC[P+](CCCCCC)(CCCCCC)CCCCCC [trihexyl(tetradecyl)phosphonium hexanoate]          343.1
2  CCCCCCCCCC(=O)[O-].CCCCCCCCCCCCCC[P+](CCCCCC)(CCCCCC)CCCCCC [trihexyltetradecylphosphonium decanoate]          409.8
3  CCCC(=O)[O-].CCCCCCCCCCCCCC[P+](CCCCCC)(CCCCCC)CCCCCC [trihexyl(tetradecyl)phosphonium butyrate]          251.1
4  CCCCCCCC(=O)[O-].CCCCCCCCCCCCCC[P+](CCCCCC)(CCCCCC)CCCCCC [trihexyl(tetradecyl)phosphonium octanoate]          400.2
5  CC(=O)[O-].CCCCCCCCCCCCCC[P+](CCCCCC)(CCCCCC)CCCCCC [trihexyl(tetradecyl)phosphonium acetate]          196.2

====

- protocolDescription: molar heat capacity at constant pressure
- cond: 348.15 K; 101.33 kPa; Liquid; Small sample (50 mg) DSC
recordedMetric: molar heat capacity at constant pressure (J/K/mol)

> print(dat)
                                   molecule  valueunits  reportedvalue
1  CCCC(=O)[O-].CCCCCCCCCCCCCC[P+](CCCCCC)(CCCCCC)CCCCCC [trihexyl(tetradecyl)phosphonium butyrate]     J/K/mol           1175
2  CCCCCCCC(=O)[O-].CCCCCCCCCCCCCC[P+](CCCCCC)(CCCCCC)CCCCCC [trihexyl(tetradecyl)phosphonium octanoate]     J/K/mol         1228.4
3  CCCCCCCCCC(=O)[O-].CCCCCCCCCCCCCC[P+](CCCCCC)(CCCCCC)CCCCCC [trihexyltetradecylphosphonium decanoate]     J/K/mol         1269.6
4  CCCCCC(=O)[O-].CCCCCCCCCCCCCC[P+](CCCCCC)(CCCCCC)CCCCCC [trihexyl(tetradecyl)phosphonium hexanoate]     J/K/mol         1211.2
5  CC(=O)[O-].CCCCCCCCCCCCCC[P+](CCCCCC)(CCCCCC)CCCCCC [trihexyl(tetradecyl)phosphonium acetate]     J/K/mol         1154.2

====

Here the recorded molar heat capacity at constant pressure is given for each entry.
- protocolDescription: molar heat capacity at constant pressure
- cond: 333.15 K; 101.33 kPa; Liquid; Small sample (50 mg) DSC
recordedMetric: molar heat capacity at constant pressure (J/K/mol)

> print(dat)
                                   compound                            recordedmetric  valueunits  reportedvalue
1  CCCCCC(=O)[O-].CCCCCCCCCCCCCC[P+](CCCCCC)(CCCCCC)CCCCCC [trihexyl(tetradecyl)phosphonium hexanoate]  molar heat capacity at constant pressure     J/K/mol           1189
2  CCCCCCCC(=O)[O-].CCCCCCCCCCCCCC[P+](CCCCCC)(CCCCCC)CCCCCC [trihexyl(tetradecyl)phosphonium octanoate]  molar heat capacity at constant pressure     J/K/mol         1206.5
3  CCCCCCCCCC(=O)[O-].CCCCCCCCCCCCCC[P+](CCCCCC)(CCCCCC)CCCCCC [trihexyltetradecylphosphonium decanoate]  molar heat capacity at constant pressure     J/K/mol           1246
4  CCCC(=O)[O-].CCCCCCCCCCCCCC[P+](CCCCCC)(CCCCCC)CCCCCC [trihexyl(tetradecyl)phosphonium butyrate]  molar heat capacity at constant pressure     J/K/mol         1154.5
5  CC(=O)[O-].CCCCCCCCCCCCCC[P+](CCCCCC)(CCCCCC)CCCCCC [trihexyl(tetradecyl)phosphonium acetate]  molar heat capacity at constant pressure     J/K/mol         1134.1

====

- cond: 298.15 K; 101.33 kPa; Liquid; Vibrating tube method
recordedMetric: mass density (kg/m3)

> print(dat)
                                   molecule  reportedvalue
1  CCCC(=O)[O-].CCCCCCCCCCCCCC[P+](CCCCCC)(CCCCCC)CCCCCC [trihexyl(tetradecyl)phosphonium butyrate]          890.4
2  CCCCCCCC(=O)[O-].CCCCCCCCCCCCCC[P+](CCCCCC)(CCCCCC)CCCCCC [trihexyl(tetradecyl)phosphonium octanoate]          881.4
3  CC(=O)[O-].CCCCCCCCCCCCCC[P+](CCCCCC)(CCCCCC)CCCCCC [trihexyl(tetradecyl)phosphonium acetate]          894.6
4  CCCCCCCCCC(=O)[O-].CCCCCCCCCCCCCC[P+](CCCCCC)(CCCCCC)CCCCCC [trihexyltetradecylphosphonium decanoate]          877.3
5  CCCCCC(=O)[O-].CCCCCCCCCCCCCC[P+](CCCCCC)(CCCCCC)CCCCCC [trihexyl(tetradecyl)phosphonium hexanoate]          885.5

====

- cond: 308.2 K; 101.33 kPa; Liquid; Cone and plate viscometry
Numbers after ± are expanded uncertainties.
recordedMetric: viscosity

> print(dat)
                                   compound      reportedvalue
1  CCCCCCCCCC(=O)[O-].CCCCCCCCCCCCCC[P+](CCCCCC)(CCCCCC)CCCCCC [trihexyltetradecylphosphonium decanoate]   242.5 ± 17 mPa·s
2  CCCCCC(=O)[O-].CCCCCCCCCCCCCC[P+](CCCCCC)(CCCCCC)CCCCCC [trihexyl(tetradecyl)phosphonium hexanoate]     200 ± 13 mPa·s
3  CCCCCCCC(=O)[O-].CCCCCCCCCCCCCC[P+](CCCCCC)(CCCCCC)CCCCCC [trihexyl(tetradecyl)phosphonium octanoate]   230.8 ± 16 mPa·s
4  CCCC(=O)[O-].CCCCCCCCCCCCCC[P+](CCCCCC)(CCCCCC)CCCCCC [trihexyl(tetradecyl)phosphonium butyrate]  146.3 ± 9.5 mPa·s
5  CC(=O)[O-].CCCCCCCCCCCCCC[P+](CCCCCC)(CCCCCC)CCCCCC [trihexyl(tetradecyl)phosphonium acetate]  117.4 ± 7.5 mPa·s

====

Here the recorded mass density is given for each entry.
- cond: 293.15 K; 101.33 kPa; Liquid; Vibrating tube method
recordedMetric: mass density (kg/m3)

> print(dat)
                                   compound  recordedmetric  reportedvalue
1  CCCCCC(=O)[O-].CCCCCCCCCCCCCC[P+](CCCCCC)(CCCCCC)CCCCCC [trihexyl(tetradecyl)phosphonium hexanoate]    mass density          888.5
2  CC(=O)[O-].CCCCCCCCCCCCCC[P+](CCCCCC)(CCCCCC)CCCCCC [trihexyl(tetradecyl)phosphonium acetate]    mass density          897.6
3  CCCCCCCC(=O)[O-].CCCCCCCCCCCCCC[P+](CCCCCC)(CCCCCC)CCCCCC [trihexyl(tetradecyl)phosphonium octanoate]    mass density          884.5
4  CCCCCCCCCC(=O)[O-].CCCCCCCCCCCCCC[P+](CCCCCC)(CCCCCC)CCCCCC [trihexyltetradecylphosphonium decanoate]    mass density          880.4
5  CCCC(=O)[O-].CCCCCCCCCCCCCC[P+](CCCCCC)(CCCCCC)CCCCCC [trihexyl(tetradecyl)phosphonium butyrate]    mass density            893

====

- cond: 353.15 K; 101.33 kPa; Liquid; Vibrating tube method
recordedMetric: mass density (kg/m3)

> print(dat)
                                   molecule  valueunits  reportedvalue
1  CCCCCC(=O)[O-].CCCCCCCCCCCCCC[P+](CCCCCC)(CCCCCC)CCCCCC [trihexyl(tetradecyl)phosphonium hexanoate]       kg/m3          851.5
2  CCCCCCCCCC(=O)[O-].CCCCCCCCCCCCCC[P+](CCCCCC)(CCCCCC)CCCCCC [trihexyltetradecylphosphonium decanoate]       kg/m3          843.3
3  CCCC(=O)[O-].CCCCCCCCCCCCCC[P+](CCCCCC)(CCCCCC)CCCCCC [trihexyl(tetradecyl)phosphonium butyrate]       kg/m3          856.7
4  CCCCCCCC(=O)[O-].CCCCCCCCCCCCCC[P+](CCCCCC)(CCCCCC)CCCCCC [trihexyl(tetradecyl)phosphonium octanoate]       kg/m3          847.6
5  CC(=O)[O-].CCCCCCCCCCCCCC[P+](CCCCCC)(CCCCCC)CCCCCC [trihexyl(tetradecyl)phosphonium acetate]       kg/m3          860.7

====

Here the recorded molar heat capacity at constant pressure is given for each entry.
- protocolDescription: molar heat capacity at constant pressure
- cond: 308.15 K; 101.33 kPa; Liquid; Small sample (50 mg) DSC
recordedMetric: molar heat capacity at constant pressure (J/K/mol)

> print(dat)
                                   compound                            recordedmetric  reportedvalue
1  CCCCCCCC(=O)[O-].CCCCCCCCCCCCCC[P+](CCCCCC)(CCCCCC)CCCCCC [trihexyl(tetradecyl)phosphonium octanoate]  molar heat capacity at constant pressure         1170.1
2  CC(=O)[O-].CCCCCCCCCCCCCC[P+](CCCCCC)(CCCCCC)CCCCCC [trihexyl(tetradecyl)phosphonium acetate]  molar heat capacity at constant pressure         1105.9
3  CCCCCC(=O)[O-].CCCCCCCCCCCCCC[P+](CCCCCC)(CCCCCC)CCCCCC [trihexyl(tetradecyl)phosphonium hexanoate]  molar heat capacity at constant pressure         1156.7
4  CCCCCCCCCC(=O)[O-].CCCCCCCCCCCCCC[P+](CCCCCC)(CCCCCC)CCCCCC [trihexyltetradecylphosphonium decanoate]  molar heat capacity at constant pressure         1209.3
5  CCCC(=O)[O-].CCCCCCCCCCCCCC[P+](CCCCCC)(CCCCCC)CCCCCC [trihexyl(tetradecyl)phosphonium butyrate]  molar heat capacity at constant pressure         1123.6
